# System: DMS 114 small cell lung
# assay_remarks: NCI tumour cell line growth inhibition, 48 h
Please respond with reported TGI for every item in the list.

Tell me its TGI given CSc1nnc2n1-c1ccccc1SCC2 as the entry.
> 100 µM

Tell me its TGI given CCOC(=O)/C(C#N)=C/c1[nH]c(C)c(C)c1C as the entry.
> 100 µM

Tell me its TGI given CN=C(NC#N)NCc1ccccc1 as the entry.
> 100 µM

Tell me its TGI given COc1ccc(/C=C\c2cc(OC)c(OC(C)=O)c(OC)c2)cc1 as the entry.
61.7 µM

Tell me its TGI given CC1(C)OC(=O)C(c2ccsc2)C(=O)O1 as the entry.
> 100 µM

Tell me its TGI given Nc1c(-c2ccc(-c3c(N)[n+]([O-])c4ccccc4[n+]3[O-])cc2)[n+]([O-])c2ccccc2[n+]1[O-] as the entry.
16.3 µM

Tell me its TGI given O=C1CCC(=O)C12CCc1ccccc12 as the entry.
> 100 µM

Tell me its TGI given CSc1nc(NC2OC(CO)C(O)C(O)C2O)c(N)c(=O)[nH]1 (centres undefined) as the entry.
> 100 µM

Tell me its TGI given COc1ccc(/C=C2\CCC(CN(C)C)C2=O)cc1 (centres undefined) as the entry.
21.6 µM

Tell me its TGI given O=c1c2ccc(Br)cc2nc(-c2ccccc2)n1NC1OC(CO)C(O)C(O)C1O (centres undefined) as the entry.
> 100 µM

Tell me its TGI given Cn1c(=O)ccc2cc(C(=O)c3ccccc3)ccc21 as the entry.
81.1 µM

Tell me its TGI given NC1=C(O)/C(=N/NS(=O)(=O)c2ccccc2)C(c2cccc(Cl)c2)O1 (centres undefined) as the entry.
42.1 µM

Tell me its TGI given O=C(O)c1cc2sc(C(=O)O)cc2s1 as the entry.
> 100 µM

Tell me its TGI given NCCCSCC(=O)O as the entry.
> 100 µM

Tell me its TGI given CCCCCCCCC[C@@H]1C[C@H](O)[C@H](Cc2ccccc2)N1C(=O)OC(C)(C)C as the entry.
32.4 µM

Tell me its TGI given Cn1c(=O)c2nc3sc4ccccc4c(=N)n3c2n(C)c1=O as the entry.
> 100 µM

Tell me its TGI given CCn1cc(C(=O)O)c(=O)c2cc(F)c(N3CCNCC3)nc21 as the entry.
> 100 µM

Tell me its TGI given CCC1(O)CC(c2ccccc2)N(C)C(c2ccccc2)C1 (centres undefined) as the entry.
> 100 µM

Tell me its TGI given O=CN/C=C\c1cc(O)ccc1O as the entry.
52.3 µM
